Assay: Tacrolimus whole blood concentration, trough and 12-h AUC after kidney transplantation (chemiluminescent microparticle immunoassay)
Assay type: in vivo, human
Conditions: human, whole blood, oral, 30 mg, day 7 post-transplantation; CYP3A5 non-expressers, diltiazem 30 mg every 12 h (n = 9); mean ± SD; read-out: AUC (area under the concentration over 12-h curve)
measure_name: AUC (ng·h/mL)
Note: unit ng·h/mL is implicit; provide only the numeric part.

Sample C=CC[C@@H]1/C=C(\C)C[C@H](C)C[C@H](OC)[C@H]2O[C@@](O)(C(=O)C(=O)N3CCCC[C@H]3C(=O)O[C@H](/C(C)=C/[C@@H]3CC[C@@H](O)[C@H](OC)C3)[C@H](C)[C@@H](O)CC1=O)[C@H](C)C[C@@H]2OC — what was its AUC? 148
